Values compiled from PubChem BioAssay (NCI).

test system: MCF7 breast; experiment: NCI tumour cell line growth inhibition, 48 h; in the data active = GI50 below about 0.43 µM; inactive = the rest
Possible outcomes: yes (active), no (inactive)

- O=C1c2ccccc2-c2c1c1ccc3ccccc3c1n2-c1ccccc1: no
- CCN1C(=O)N[C@H]2[C@@H]3NC(=O)c4ccc(Cl)n4[C@@H]3C[C@]21O: yes
- NC1=C(/C(N)=N/O)C(c2ccccc2)c2ccc3ccccc3c2O1 (stereo not given): yes
- CCSc1nc(N)c(C#N)c(-c2ccc(OC)c(OC)c2)c1C#N: no
- CCN1Cc2c(/C=C/c3ccccc3)nc3ccc(OC)cc3c2N(c2cccc(Cl)c2)C1: no

----------
# TGI per entry
test system: OVCAR-5 ovarian; assay: NCI tumour cell line growth inhibition, 48 h
Metric Name: TGI

* Nc1ncnc2c1N=CN(Oc1ccccc1)N2 | > 100 µM
* CNC(=O)NCCCCC(NC(=O)OCc1ccccc1)C(=O)OCc1ccccc1 (stereo unspecified) | > 100 µM
* O=C(c1nc2ccc(Cl)cc2[nH]c1=O)C(O)c1cccc([N+](=O)[O-])c1 (stereo unspecified) | > 100 µM
* O=c1oc2ccccc2c(O)c1Cc1ccccc1Cc1c(O)c2ccccc2oc1=O | > 100 µM
* COc1ccc(-n2nnc3c(C#N)c(C)c(-c4ccccc4)n3c2=O)cc1 | > 57.6 µM
* COc1cc([N+](=O)[O-])cc2c1NC(=O)C2(C)SC (stereo unspecified) | > 100 µM

----------
test system: NCI-H460 lung; assay: NCI tumour cell line growth inhibition, 48 h
Metric Name: TGI

* COc1ccc(/C=N/C2=NNC(C)(c3ccccc3O)N2C(Cc2c[nH]c3ccccc23)C(=O)O)cc1 (stereo unspecified) | 8.51 µM
* O=C(c1nc2ccc(Cl)cc2[nH]c1=O)C(O)c1cccc([N+](=O)[O-])c1 (stereo unspecified) | > 100 µM
* O=C(Cn1c2c(c3ccccc31)CCCC2)N1CCOCC1 | > 100 µM
* NC(CCSCCF)C(=O)O (stereo unspecified) | > 100 µM
* C=C(CN(C)C)C(=O)c1ccccc1Cl | > 100 µM
* Oc1c(O)c(Cc2ccccc2)c(Cc2ccccc2)c(Cc2ccccc2)c1Cc1ccccc1 | > 10 µM
* COC(=O)CCC(=O)Nc1cc(C)ccc1C | > 100 µM
* Cn1c(=S)c2[nH]c(SCc3cccnc3)nc2n(C)c1=O | > 100 µM
* CCCCCCCCCCCc1cc(=O)c2c(O)cccc2o1 | > 100 µM
* Cc1cc(O)cc(-c2nn(C)cc2-c2cc(N3CCOCC3)nc(-c3cccnc3)n2)c1 | > 100 µM
* Oc1ccc(Cl)cc1C1=Nn2c(COc3ccc4c(c3)CCCC4)nnc2SC1 | 30.9 µM

----------
# GI50 per entry
system: T-47D breast; test: NCI tumour cell line growth inhibition, 48 h
Metric Name: GI50

- O=C1Nc2cc(-c3ccc(O)cc3)ccc2/C1=C/c1ccc[nH]1: 0.0591 µM
- O=C1c2ccccc2-c2c1c1ccc3ccccc3c1n2-c1ccccc1: 12.7 µM
- COc1ccc2cn3c4ccc(O)cc4[nH]c(=O)c3c2c1: 0.573 µM
- Nc1nc(N)c2cc(S(=O)(=O)c3ccccc3)ccc2n1: 9.57 µM
- COc1ccc(-n2nc(C(=O)NCC(=O)Nc3nc4cc(OC)ccc4s3)c3ccccc3c2=O)cc1: 0.927 µM
- CCN(CC)CCC(CNc1c(C)cnc2cc(Cl)ccc12)c1ccc(Cl)c(Cl)c1 (stereo not given): 2.22 µM
- CCN(CC)CCOc1ccccc1-n1c(C)ccc1-c1ccccc1: 15.7 µM
- COc1cc(NC(=O)c2cc3ccccc3cc2O)c(OC)cc1Cl: 1.8 µM
- Nc1n[nH]c2cc(F)c([C@@H]3Nc4c(F)cc5[nH]ncc5c4[C@H]4C5CCC(C5)[C@@H]34)cc12 (stereo not given in full): 5.89 µM
- N#CC1=C(N)Oc2c(ccc3cccnc23)C1c1ccccc1 (stereo not given): 1.45 µM
